Assay: Rat Hepatocyte Stability (Test E)
Type: in vitro ADME
Settings: rat, hepatocytes, geometric mean if run multiple times
property: hepatocyte CLint (µL/min/1e6 cells)
Give just the number in µL/min/1e6 cells; leave the unit off.

Below: 5 molecules and their reported hepatocyte CLint.
COc1cc(F)c(O[C@H]2CC[C@@](C)(C(=O)O)CC2)cc1C(=O)N[C@@H]1[C@H]2CC[C@H](C2)[C@@H]1C(=O)NC(C(C)C)C(C)C; 52
COc1cc(F)c(O[C@H]2CC[C@@](C)(C(=O)O)CC2)cc1C(=O)N[C@@H]1[C@H]2CC[C@H](C2)[C@@H]1C(=O)N[C@@H]1CCCN(S(=O)(=O)C(F)(F)F)C1; 14
COc1cc(F)c(OC2CCC(C)(C(=O)O)CC2)cc1C(=O)NC1CC(OC)CC1C(=O)Nc1cccc(S(=O)(=O)C(F)(F)F)c1 (single isomer, unassigned); 23
COc1cc(C#N)c(O[C@H]2CC[C@@](C)(C(=O)O)CC2)cc1C(=O)N[C@@H]1[C@H]2CC[C@H](C2)[C@@H]1C(=O)NC(C)(C)C; 11
COc1cc(C#N)c(O[C@H]2CC[C@@](C)(C(=O)O)CC2)cc1C(=O)N[C@@H]1[C@H]2CC[C@H](C2)[C@@H]1C(=O)NC12CC(C1)C2; 17

Then this molecule:
Q) Reported hepatocyte CLint for `COc1cc(F)c(O[C@H]2CC[C@@H](C(=O)O)CC2)cc1C(=O)N[C@@H]1[C@H]2CC[C@H](C2)[C@@H]1C(=O)Nc1cc(C(F)(F)F)ccc1Cl` : what is it?
A) 38

---

Assay: Human Liver Microsomal Stability (Test C)
Type: in vitro ADME
Settings: human, liver microsomes
Collected microsomal CLint values appear next to each entry.
Answer format: numeric, µL/min/mg implied, no suffix.

COc1cc(C#N)c(O[C@H]2CC[C@@](C)(C(=O)O)CC2)cc1C(=O)N[C@@H]1[C@H]2CC[C@H](C2)[C@@H]1C(=O)N[C@H]1C[C@@H](C)C1; 11
COc1cc(F)c(O[C@H]2CC[C@@H](C(=O)O)CC2)cc1C(=O)N[C@@H]1[C@H]2CC[C@H](C2)[C@@H]1C(=O)Nc1cccc(OC(F)(F)F)c1F; 27
COc1cc(F)c(-c2ccc(C(=O)O)cc2)cc1C(=O)N[C@H]1[C@@H]2CC[C@@H](C2)[C@H]1C(=O)Nc1ccc(F)c(C(F)(F)F)c1 (single isomer, unassigned); 19
COc1cc(F)c(O[C@H]2CC[C@@](C)(C(=O)O)CC2)cc1C(=O)N[C@@H]1[C@H]2CC[C@H](C2)[C@@H]1C(=O)N[C@@H]1CCN(S(=O)(=O)C(F)(F)F)C1; 25

Shift focus to the following entry.
Q) Consider the compound `COc1cc(F)c(OCCCCCC(=O)O)cc1C(=O)N[C@@H]1[C@H]2CC[C@H](C2)[C@@H]1C(=O)Nc1cccc(S(=O)(=O)C(F)(F)F)c1` and give its measured microsomal CLint.
A) 63

---

Experiment: Human Plasma Protein Binding (Test B)
Assay type: in vitro ADME
Conditions: fraction unbound (fu)
// reported Test B Human Plasma Protein Binding (% free) for each item listed

Below: 5 compounds and their reported Test B Human Plasma Protein Binding (% free).
COc1cc(C#N)c(O[C@H]2CC[C@@](C)(C(=O)O)CC2)cc1C(=O)N[C@@H]1[C@H]2CC[C@H](C2)[C@@H]1C(=O)NCC1(CF)CC1; 18 % free
COc1ccc(O[C@H]2CC[C@@](C)(C(=O)O)CC2)cc1C(=O)N[C@@H]1[C@H]2CC[C@H](C2)[C@@H]1C(=O)NCC1(C)CCC1; 3.8 % free
COC[C@]1(C(=O)O)CC[C@@H](Oc2cc(C(=O)N[C@@H]3[C@H]4CC[C@H](C4)[C@@H]3C(=O)Nc3cccc(S(=O)(=O)C(F)(F)F)c3)c(OC)cc2F)CC1; 1.5 % free
COc1cc(C#N)c(O[C@H]2CC[C@@](C)(C(=O)O)CC2)cc1C(=O)N[C@@H]1[C@H]2CC[C@H](C2)[C@@H]1C(=O)NCC1(F)CCOCC1; 44 % free
COc1cc(F)c(-c2cccc(CCC(=O)O)c2)cc1C(=O)N[C@@H]1CCC[C@@H]1C(=O)Nc1cccc(S(=O)(=O)C(F)(F)F)c1; 0.44 % free

Proceeding to the next compound to report its Test B Human Plasma Protein Binding (% free).
Q) What does the record list as Test B Human Plasma Protein Binding (% free) for `COc1cc(Cl)c(O[C@H]2CC[C@@](C)(C(=O)O)CC2)cc1C(=O)N[C@@H]1[C@H]2CC[C@H](C2)[C@@H]1C(=O)NCC1(C)CCC1` ?
A) 2.7 % free

Hello, the source for this data is patent US11667602B2, in case you need it.
